molecular target: T1, human Claudin18.2 (human); assay: FACS, Claudin18.2-HEK293 cells
T1 construct: also called CLDN18.2
measured-metric: EC50 (µg/mL)
Lab book: enter the figure in µg/mL, no units written.

Sample answers from the record:
binder	EC50 [µg/mL]
chimeric 412B6E4 (antibody, human IgG1, kappa, V domains shown, chimeric, human IgG1/kappa constant regions; also called 412B6E4-Chimeric) VH: DVQLVESGGGLVQPGGSRKLSCAASGFTFSSFGVHWVRQAPEKGLEWVAYISSGSSTIYYAHSVKGRFTISRDNPKNTLFLQMTSLGSEDTATYYCARFYYGNSFAYWGQGTLVTVSA VL: DIVMTQSPSSLTVTAGEKVTMSCKSSQSLLNSGNQKNYLTWYQQKPGQPPKMLIYWASTRESGVPDRFTGSGSGTDFTLTISSVQAEDLAVYYCQNAYTYPLTFGAGTRLELKR	0.555
humanized 370E2B12C3-VH3 + VL3 (antibody, human IgG1, kappa, V domains shown, humanized, human IgG1/kappa constant regions) VH: QVQLVESGGGVVQPGRSLRLSCAASGFSLTTYGVHWVRQAPGKGLEWVAVIWAGGSTNYNSALMSRFTISRDNSKNTLYLQMNSLRAEDTAVYYCARAAYYGNGLDYWGQGTMVTVSS VL: DVVMTQSPLSLPVTLGQPASISCKSSQTLLNSGNQKNYLTWFQQRPGQSPRRLIYWASTGESGVPDRFSGSGSGTDFTLKISRVEAEDVGVYYCQNAYFYPFTFGGGTKVEIKR	1.17

In: Record request: EC50 value, item humanized 207F8G5-VH1.7 + VL1 (antibody, human IgG1, kappa, V domains shown, humanized, human IgG1/kappa constant regions) VH: QVQLVQSGAEVKKPGASVKVSCKASGFTFTSYNIHWVKQAPGQGLEWMGYISPGNGGSNYNLKFKDRVTLTSDTSISTAYMELSRLRSDDTAVYYCATGRGFAYWGQGTLVTVSS VL: DIVMTQSPDSLAVSLGERATINCKSSQSLFNSGNQKNYLIWYQQKPGQPPKLLIYRASTRDSGVPDRFSGSGSGTDFTLTISSLQAEDVAVYYCQNDYSYPLTFGGGTKLEIKR
Out: 0.145
